Reported Growth Rate values are given for each entry in this list.
- Tested on: Fibroblast
- assayNotes: Incucyte cell viability with human fibroblast; note: unitless GR value; below 1 slowed growth and below 0 cell loss
- Assay type: toxicity, cell-based
- condition: 12 h, 10 µM, compound concentration 10 uM, replicate number 1

# molecule, Growth Rate
rows = [
    ("Cn1nc(-c2ccc(C(N)=O)cc2)c2ccccc2c1=O", 0.99),
    ("Cn1cncc1-c1cn(-c2cccc(C(=O)Nc3cccc(C(F)(F)F)c3)c2)nn1", 0.87),
    ("Fc1cccc(-n2cnc3c(NCc4nc5ccc(F)c(F)c5[nH]4)nc(N4CCOCC4)nc32)c1", 0.02),
    ("Cn1cc(-n2cnc3c(NCc4nc5cc(Cl)c(Cl)cc5[nH]4)nc(N4CCOCC4)nc32)cn1", 0.37),
    ("C[C@@H](C(N)=O)[C@H](N)c1nc2cc(C(C)(C)C)ccc2[nH]1", -0.52),
    ("CC(C)c1nc2c(c3c1[C@@H](c1ccc(C(F)(F)F)cc1)OC31CCOCC1)[C@@H](O)CC(C)(C)C2.Cl", -0.05),
    ("Cc1nc2ccc(Oc3ccc(F)cc3)cc2c(=O)n1C[C@H]1CCCN(C(C)C)C1.Cl", 0.12),
    ("CC1(C)Oc2ncnc(N)c2N=C1c1ccc([C@H]2CC[C@H](CC(=O)O)CC2)cc1", 0.81),
    ("CCC(C(=O)Nc1ccc(-c2cc3ccccc3s2)c(C(N)=O)c1)c1nccs1 (configuration not stated)", 0.72),
    ("O=C(Nc1ccc(OC(F)(F)Cl)cc1)c1cnc(N2CC[C@@H](O)C2)c(-c2ccn[nH]2)c1", 0.06),
    ("Nc1ncnc2[nH]c(-c3ccccc3)nc12", 0.88),
    ("C[C@]12CC[C@@H]3c4ccc(O)cc4CC[C@H]3[C@@H]1C[C@H]1OC(=O)C[C@]12O", 0.52),
    ("CN1CCN(C(=O)Cc2ccc(N/C(=C3\\C(=O)Nc4cc(Cl)ccc43)c3ccccc3)cc2)CC1", 0.24),
    ("COCCN1CCN(CCn2ccc(Nc3ncc4c(n3)-c3c(nn(C)c3-c3ccccc3)C[C@H]4C)n2)CC1", 0.47),
    ("CCCN1C(=O)c2ccc(Cl)cc2Nc2ncccc21", 0.9),
    ("CCCOc1cnc(CN/C=C2\\C(=O)NC(=O)c3ccc(I)cc32)cc1O", -0.79),
    ("Cl.O=C(c1ccc(-c2ccc(Cl)cc2)o1)N(Cc1ccccn1)c1ccc(N2CCNCC2)cc1", -1),
    ("CCc1cc2c(cc1-c1cccc(S(=O)(=O)F)c1)C(C)(C)c1[nH]c3cc(C#N)ccc3c1C2=O", -0.96),
    ("Nc1ncc2c(n1)-c1c([nH]c3ccc(C4=CCOCC4)cc13)CCC2", 0.69),
    ("Cc1ccc2c(N)c(C(=O)NC3CCc4cc(N5CC6CCC(C5)N6)ccc4C3)sc2n1.O=CO (configuration not stated)", 0.09),
    ("CN[C@@H](C)C/C=C/c1cncc(OC(C)C)c1", -0.29),
    ("Cn1nccc1Nc1nccc(-c2cc3c(s2)C(C)(C)N(CCN2CCOCC2)C3=O)n1", -0.93),
    ("CCOP(=O)(OCC)C(=Cc1cc(C(C)(C)C)c(O)c(C(C)(C)C)c1)P(=O)(OCC)OCC", 0.78),
    ("Fc1ccc(-c2c3cccc(C(F)(F)F)c3nn2Cc2ccc(F)cc2Cl)cc1", -0.03),
    ("Cl.Cl.c1ccc2c(-c3cnn4cc(-c5ccc(N6CCNCC6)cc5)cnc34)ccnc2c1", -1),
    ("COc1cccc(Cn2cc(C(=O)Nc3ccc(C)c(S(=O)(=O)N4CCOCC4)c3)c(-c3ccc(C)cc3)n2)c1", 0.7),
    ("O=C1CCCN1CCNc1nc(Nc2ccc(Cl)c(Cl)c2)ncc1C(F)(F)F", 0.62),
    ("COc1ccc(Br)cc1S(=O)(=O)NC(=O)/C=C/c1cc(Cl)ccc1Cc1ccc2ccccc2c1", 0.99),
    ("CCN1CCN(Cc2ccc(Nc3ncc(F)c(-c4cc(F)c5nc(C)n(C(C)C)c5c4)n3)nc2)CC1.CS(=O)(=O)O", -1),
    ("COC(=O)C1=C(C)NC(C)=C(C(=O)OC(C)C)C1c1cccc2nonc12 (configuration not stated)", -1),
    ("Cc1nnc2ccc(-c3cccc(C(F)(F)F)c3)nn12", -1),
    ("Nc1ncnc2c1c(COc1cccc(Cl)c1)nn2C1CCOCC1", 0.9),
    ("Cc1cc(Cn2c(N3CC4(CNC4)C3)nc3cc(Cl)cc(N4CCN(C)CC4)c32)cc(C)c1F", -0.09),
    ("COc1cnccc1Nc1nc(-c2nn(Cc3c(F)cc(OCCO)cc3F)c3ccccc23)ncc1OC", -0.23),
    ("CC(C1CC2CCC1C2)n1c(S)nnc1-c1ccco1 (configuration not stated)", -1),
    ("CC(Oc1cc(-c2cnn(C3CCNCC3)c2)cnc1N)c1c(Cl)ccc(F)c1Cl (configuration not stated)", -0.94),
    ("CCNc1ccc(-c2nn(-c3ccccc3C)c3c2C(C)Cc2nc(NC(=O)OC)sc2-3)cn1.O=C(O)C(F)(F)F (configuration not stated)", -0.55),
]
